biological target: P. falciparum apicoplast DNA polymerase (Pf-apPOL) (Plasmodium falciparum); test: Fluorescence-based high-throughput DNA polymerase assay (molecular beacon), primary screen and dose-response; format: biochemical; settings: conc 40 (unit not given); 40'; DRC-2;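 further: compound concentration given in µM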
Sequence (Q8ILY1 entry or part of it): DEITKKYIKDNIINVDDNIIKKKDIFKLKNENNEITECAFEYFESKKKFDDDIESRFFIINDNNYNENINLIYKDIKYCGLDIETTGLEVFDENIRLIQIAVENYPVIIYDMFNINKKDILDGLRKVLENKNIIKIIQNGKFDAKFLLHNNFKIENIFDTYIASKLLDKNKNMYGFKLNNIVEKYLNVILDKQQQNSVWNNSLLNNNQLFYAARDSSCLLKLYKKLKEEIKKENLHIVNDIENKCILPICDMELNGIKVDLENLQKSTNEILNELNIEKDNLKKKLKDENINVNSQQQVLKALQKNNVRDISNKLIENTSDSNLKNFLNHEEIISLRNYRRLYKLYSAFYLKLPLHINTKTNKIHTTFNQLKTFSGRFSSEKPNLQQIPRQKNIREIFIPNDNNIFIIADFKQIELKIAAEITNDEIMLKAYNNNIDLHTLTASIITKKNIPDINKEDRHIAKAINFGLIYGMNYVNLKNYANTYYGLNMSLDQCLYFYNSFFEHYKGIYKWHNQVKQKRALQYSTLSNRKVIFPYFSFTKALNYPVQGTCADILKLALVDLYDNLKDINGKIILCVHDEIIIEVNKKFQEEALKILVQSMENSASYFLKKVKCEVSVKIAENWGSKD
Exercise: state measured % inhibition Apol 40' for each of the compounds provided.
Report as: number unit

[in] Give % inhibition Apol 40' for O=[N+]([O-])c1cc2c(cc1CN1CCCCCC1)OCO2 [KU0004987] tested on P. falciparum apicoplast DNA polymerase (Pf-apPOL) (Plasmodium falciparum).
[out] 39%

[in] Give % inhibition Apol 40' for O=[N+]([O-])c1cc2c(cc1CN1CCN(c3cccc(Cl)c3)CC1)OCO2 [KU0005610] tested on P. falciparum apicoplast DNA polymerase (Pf-apPOL) (Plasmodium falciparum).
[out] 49%

[in] Give % inhibition Apol 40' for CC1=NNC(=O)C1Oc1ccc(Cl)cc1Cl (stereo not shown) [KU0265591] tested on P. falciparum apicoplast DNA polymerase (Pf-apPOL) (Plasmodium falciparum).
[out] 42%

[in] Give % inhibition Apol 40' for CCSc1nnc(NC(=O)Cc2csc(NC(=O)c3cnccn3)n2)s1 [Molecule 79] tested on P. falciparum apicoplast DNA polymerase (Pf-apPOL) (Plasmodium falciparum).
[out] 62%

[in] Give % inhibition Apol 40' for O=C(c1c[nH]c2ncccc12)N1CCCCCC1 [Molecule 51, O=C(c1c[nH]c2c1cccn2)N1CCCCCC1] tested on P. falciparum apicoplast DNA polymerase (Pf-apPOL) (Plasmodium falciparum).
[out] 45%

[in] Give % inhibition Apol 40' for CSCCC(C)(O)CNC(=O)C1CC1 (stereo not shown) [KU0200150] tested on P. falciparum apicoplast DNA polymerase (Pf-apPOL) (Plasmodium falciparum).
[out] 41%

[in] Give % inhibition Apol 40' for O=C(Nc1nnc(-c2cccs2)o1)c1ccc([N+](=O)[O-])o1 [Molecule 74] tested on P. falciparum apicoplast DNA polymerase (Pf-apPOL) (Plasmodium falciparum).
[out] 61%
